Target: rat albumin (rat, UniProt P02770 25-608)
Sequence (P02770 25-608 limits assumed): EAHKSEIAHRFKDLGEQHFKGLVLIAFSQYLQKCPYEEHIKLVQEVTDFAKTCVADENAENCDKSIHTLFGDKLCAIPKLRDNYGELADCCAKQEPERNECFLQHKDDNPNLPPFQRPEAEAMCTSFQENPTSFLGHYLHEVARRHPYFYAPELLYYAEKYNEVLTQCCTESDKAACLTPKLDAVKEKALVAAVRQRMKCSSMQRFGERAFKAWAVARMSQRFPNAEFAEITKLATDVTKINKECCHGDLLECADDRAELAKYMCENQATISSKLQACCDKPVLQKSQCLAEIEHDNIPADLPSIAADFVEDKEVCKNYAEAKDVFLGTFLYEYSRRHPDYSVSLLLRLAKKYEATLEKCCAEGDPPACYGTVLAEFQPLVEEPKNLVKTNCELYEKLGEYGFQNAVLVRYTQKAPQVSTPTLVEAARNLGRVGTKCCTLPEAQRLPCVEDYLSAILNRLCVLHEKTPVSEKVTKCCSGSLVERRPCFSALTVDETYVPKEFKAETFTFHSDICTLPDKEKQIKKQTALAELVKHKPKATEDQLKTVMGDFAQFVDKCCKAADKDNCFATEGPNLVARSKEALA
Assay: phage ELISA
Where no end group is shown, it is not given here.
MEASURED_METRIC: binding result

KLCYFPGICWS (phage clone, Library HC) [HC-H2]; no binding
EVCYFPGICWF (phage clone, Library HC) [HC-H11]; no binding
RGPDVCYWPSICFERSMP (not fully specified (bridges); cysteine pairing not given here, phage clone, Library HB) [HB-H6]; no binding
